The following molecules are listed with their measured residual activity values.
Target: Serine/threonine-protein kinase D2 (Homo sapiens)
Sequence (whole entry): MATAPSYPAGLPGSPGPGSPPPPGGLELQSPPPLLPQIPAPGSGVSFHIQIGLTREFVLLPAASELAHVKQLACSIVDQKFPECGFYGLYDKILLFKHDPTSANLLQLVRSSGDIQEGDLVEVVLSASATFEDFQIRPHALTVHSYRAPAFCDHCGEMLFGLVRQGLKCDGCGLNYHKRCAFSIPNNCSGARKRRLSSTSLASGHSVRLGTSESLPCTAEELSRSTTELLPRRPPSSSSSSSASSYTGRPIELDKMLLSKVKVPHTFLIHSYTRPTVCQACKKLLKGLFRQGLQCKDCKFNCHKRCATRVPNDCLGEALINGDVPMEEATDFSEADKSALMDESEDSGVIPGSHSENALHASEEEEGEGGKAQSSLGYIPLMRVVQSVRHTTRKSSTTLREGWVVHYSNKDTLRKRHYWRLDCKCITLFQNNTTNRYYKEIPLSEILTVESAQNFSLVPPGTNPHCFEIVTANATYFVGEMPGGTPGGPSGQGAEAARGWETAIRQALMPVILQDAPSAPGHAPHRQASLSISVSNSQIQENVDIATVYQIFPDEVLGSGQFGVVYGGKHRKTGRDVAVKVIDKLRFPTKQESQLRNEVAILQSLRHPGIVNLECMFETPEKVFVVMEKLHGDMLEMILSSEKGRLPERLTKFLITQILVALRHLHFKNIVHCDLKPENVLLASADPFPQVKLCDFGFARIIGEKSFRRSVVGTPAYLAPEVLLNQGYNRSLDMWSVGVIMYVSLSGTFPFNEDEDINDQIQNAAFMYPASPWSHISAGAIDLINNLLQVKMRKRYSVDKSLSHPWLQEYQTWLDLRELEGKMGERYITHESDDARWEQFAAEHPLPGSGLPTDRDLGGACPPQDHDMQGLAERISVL
Conditions: at 10 µM
PROPERTY: residual activity (%)

INSERT INTO assay_data (molecule, property, measured_result) VALUES
  ('Cn1cnc2cc3c(Nc4cccc(Br)c4)ncnc3cc21', 'residual activity', 116),
  ('COc1cc2ncc(-c3ccccc3)nc2cc1OC', 'residual activity', 99),
  ('Cc1cc(Nc2nc(-c3ccccc3)nc3ccccc23)n[nH]1', 'residual activity', 104),
  ('O=C(Nc1cccc(Nc2cc(Nc3cccc(C(F)(F)F)c3)ncn2)c1)C1CC1', 'residual activity', 110),
  ('Oc1c2ccccc2c2c3c(cccc13)N=N2', 'residual activity', 36),
  ('O=C1Nc2ccccc2/C1=C1/Nc2ccccc2/C1=N\OCCC(O)CO (stereo not drawn)', 'residual activity', 76),
  ('Cc1ccc(NC2=CC(=O)c3sc(C)nc3C2=O)cc1', 'residual activity', 85),
  ('O=C1Nc2ccc(Br)cc2/C1=C\c1cc2c([nH]1)CCCC2', 'residual activity', 106);

* * *

biological target: Cyclin-dependent kinase 2/cyclin A (Homo sapiens) (UniProt P24941+P20248+P78396); conditions: at 10 µM
PROPERTY: residual activity (%)

INSERT INTO assay_data (chemical_structure, measured_result) VALUES
  ('CC(C)n1cnc2/c(=N/c3cccc(Cl)c3)nc(NCCO)[nH]c21', 5),
  ('CC(=O)c1ccc(N2CCOCC2)cc1O', 88),
  ('COc1cc2ncnc(N3CCN(C(=O)Nc4ccc(Oc5ccccc5)cc4)CC3)c2cc1OC', 92),
  ('Nc1n[nH]c2nnc(-c3c(-c4ccccc4)nn4ccccc34)cc12', 90),
  ('O=C1NC(=O)c2c1c1c3ccccc3[nH]c1c1[nH]c3cc(Br)ccc3c21', 82),
  ('N#CC(C#N)=C(N)/C(C#N)=C/c1ccc(O)cc1', 88),
  ('COc1cccc(-c2cc(=O)c3ccccc3o2)c1N', 10),
  ('O=c1cc(-c2cccc3c2Sc2ccccc2S3)oc(N2CCOCC2)c1', 78),
  ('N#CCCc1ccc2c(c1)-c1[nH]c3ccc([N+](=O)[O-])cc3c1CC(=O)N2', 1),
  ('Cn1nc2c3c(cccc31)C(=O)c1ccccc1-2', 84),
  ('N#Cc1cnc2cnc(NCc3cccnc3)cc2c1Nc1ccc(F)c(Cl)c1', 91),
  ('Ic1cccc(CSc2nnc(-c3ccncc3)o2)c1', 68),
  ('Cc1ccc(NC2=CC(=O)c3sc(C)nc3C2=O)cc1', 91),
  ('CCN(CC)C(=O)c1ccc(Nc2nc(OCC3CCCCC3)c3nc[nH]c3n2)cc1', 9),
  ('Oc1n[nH]c2nnc(-c3c(-c4ccccc4)nn4ccccc34)cc12', 86),
  ('COc1ccc(CNc2nc(N(CCO)CCO)nc3c2ncn3C(C)C)cc1', 3),
  ('NC(=O)c1ccc2[nH]c(-c3ccc(Oc4ccc(Cl)cc4)cc3)nc2c1', 83),
  ('O=c1c2ccccc2[nH]c(=S)n1CCN1CCC(=C(c2ccc(F)cc2)c2ccc(F)cc2)CC1', 80),
  ('Oc1c2ccccc2c2c3c(cccc13)N=N2', 36),
  ('Cn1cnc2cc3c(Nc4cccc(Br)c4)ncnc3cc21', 87),
  ('Cc1nc(-c2ccccc2)c(-c2ccncc2)o1', 92);

* * *

biological target: RAF proto-oncogene serine/threonine-protein kinase (Homo sapiens) (UniProt P04049); settings: at 10 µM
Sequence (P04049 whole entry): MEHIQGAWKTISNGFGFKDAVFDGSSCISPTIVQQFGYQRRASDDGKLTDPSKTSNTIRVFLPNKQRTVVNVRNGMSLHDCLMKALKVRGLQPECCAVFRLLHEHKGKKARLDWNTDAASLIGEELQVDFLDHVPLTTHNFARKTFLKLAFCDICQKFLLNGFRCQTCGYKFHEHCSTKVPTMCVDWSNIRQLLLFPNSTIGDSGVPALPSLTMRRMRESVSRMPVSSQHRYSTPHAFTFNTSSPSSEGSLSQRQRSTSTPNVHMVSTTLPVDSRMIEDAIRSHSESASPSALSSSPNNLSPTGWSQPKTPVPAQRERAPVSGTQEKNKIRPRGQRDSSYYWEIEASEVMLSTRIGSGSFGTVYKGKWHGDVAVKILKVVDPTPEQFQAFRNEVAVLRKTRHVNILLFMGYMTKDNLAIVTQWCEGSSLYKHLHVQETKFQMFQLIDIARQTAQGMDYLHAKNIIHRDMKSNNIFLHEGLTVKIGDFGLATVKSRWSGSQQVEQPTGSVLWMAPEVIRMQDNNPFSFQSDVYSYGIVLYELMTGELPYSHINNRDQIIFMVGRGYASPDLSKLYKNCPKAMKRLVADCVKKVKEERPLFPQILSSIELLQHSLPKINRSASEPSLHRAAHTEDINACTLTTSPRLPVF
PROPERTY: residual activity (%)

INSERT INTO results (chemical_structure, unit, measured_result) VALUES
  ('Cn1cnc2cc3c(Nc4cccc(Br)c4)ncnc3cc21', '%', 90),
  ('N#CC(C#N)=C(N)/C(C#N)=C/c1ccc(O)cc1', '%', 88),
  ('O=C1Nc2cc(Br)ccc2/C1=C1/Nc2ccccc2/C1=N\O', '%', 68),
  ('COc1ccc(S(=O)(=O)N(CCO)c2ccccc2CN(C)C/C=C/c2ccc(Cl)cc2)cc1', '%', 73),
  ('CC#CC(=O)Nc1cc2c(Nc3ccc(F)c(Cl)c3)ncnc2cn1', '%', 92),
  ('CC[n+]1c(/C=C/N(C)c2ccccc2)n(-c2ccccc2)c2ccc(-c3nc4ccccc4s3)cc21', '%', 98),
  ('CO[C@H]1[C@@H](OC)C[C@H](C)[C@@H](OC)C2=CC(=O)C=C(NC(=O)/C(C)=C/C=C/[C@H](OC)[C@@H](OC(N)=O)/C(C)=C/[C@@H]1C)C2=O', '%', 85),
  ('NC(=O)c1ccc2[nH]c(-c3ccc(Oc4ccc(Cl)cc4)cc3)nc2c1', '%', 74),
  ('O=C1NC(=O)c2c1c1c3ccccc3[nH]c1c1[nH]c3cc(Br)ccc3c21', '%', 82),
  ('O=C1NC(=O)/C(=C\c2ccc3nccnc3c2)S1', '%', 44),
  ('COc1cc2ncnc(Nc3ccc(NC(=O)c4ccccc4)cc3)c2cc1OC', '%', 93),
  ('CO[C@H]1C[C@@H]2CC[C@@H](C)[C@@](O)(O2)C(=O)C(=O)N2CCCC[C@H]2C(=O)O[C@H]([C@H](C)C[C@@H]2CC[C@@H](O)[C@H](OC)C2)CC(=O)[C@H](C)/C=C(\C)[C@@H](O)[C@@H](OC)C(=O)[C@H](C)C[C@H](C)/C=C/C=C/C=C/1C', '%', 108),
  ('Cn1cc(/C=C2\C(=O)Nc3ccc(S(N)(=O)=O)cc32)c2ccccc21', '%', 100);

* * *

molecular target: Mitogen-activated protein kinase 10 (Homo sapiens); details: at 1 µM
Bucketed by reported residual activity, buckets being group A (below 60%), group B (60% to below 90%), group C (90% or more)

INSERT INTO assay_data (chemical_structure, test_target, class_name) VALUES
  ('N#C/C(=C(\N)Sc1ccc(N)cc1)c1ccccc1C(F)(F)F', 'Mitogen-activated protein kinase 10 (Homo sapiens)', 'group C'),
  ('Cc1cc2ncc(-c3ccccc3)nc2cc1C', 'Mitogen-activated protein kinase 10 (Homo sapiens)', 'group C'),
  ('C[C@@H](N)[C@H]1CC[C@H](C(=O)Nc2ccncc2)CC1', 'Mitogen-activated protein kinase 10 (Homo sapiens)', 'group B'),
  ('Oc1n[nH]c2nnc(-c3c(-c4ccccc4)nn4ccccc34)cc12', 'Mitogen-activated protein kinase 10 (Homo sapiens)', 'group A'),
  ('O=c1c2ccccc2[nH]c(=S)n1CCN1CCC(=C(c2ccc(F)cc2)c2ccc(F)cc2)CC1', 'Mitogen-activated protein kinase 10 (Homo sapiens)', 'group C'),
  ('O=[N+]([O-])c1ccc(-c2nc(-c3ccc(F)cc3)c(-c3ccncc3)[nH]2)cc1', 'Mitogen-activated protein kinase 10 (Homo sapiens)', 'group A'),
  ('O=C(Nc1cccc(Nc2nccc(Nc3cccc(C(F)(F)F)c3)n2)c1)C1CC1', 'Mitogen-activated protein kinase 10 (Homo sapiens)', 'group A'),
  ('Cc1cncc2cccc(S(=O)(=O)N3CCCN(C(=O)CN)C[C@H]3C)c12', 'Mitogen-activated protein kinase 10 (Homo sapiens)', 'group B'),
  ('COc1cccc(-c2cc(=O)c3ccccc3o2)c1N', 'Mitogen-activated protein kinase 10 (Homo sapiens)', 'group B'),
  ('Cn1nc2c3c(cccc31)C(=O)c1ccccc1-2', 'Mitogen-activated protein kinase 10 (Homo sapiens)', 'group A'),
  ('COc1cc2ncc(-c3ccccc3)nc2cc1OC', 'Mitogen-activated protein kinase 10 (Homo sapiens)', 'group C'),
  ('CC(C)n1cnc2/c(=N/c3cccc(Cl)c3)nc(NCCO)[nH]c21', 'Mitogen-activated protein kinase 10 (Homo sapiens)', 'group B'),
  ('Oc1ccc(Nc2nc(-c3ccc(Cl)cc3)cs2)cc1', 'Mitogen-activated protein kinase 10 (Homo sapiens)', 'group C'),
  ('CN(C)CCCn1cc(C2=C(c3c[nH]c4ccccc34)C(=O)NC2=O)c2ccccc21', 'Mitogen-activated protein kinase 10 (Homo sapiens)', 'group C'),
  ('O=C1c2ccccc2-[n+]2ccc3c([nH]c4ccccc43)c21', 'Mitogen-activated protein kinase 10 (Homo sapiens)', 'group B'),
  ('O=C(Nc1cccc(Nc2cc(Nc3cccc(C(F)(F)F)c3)ncn2)c1)C1CC1', 'Mitogen-activated protein kinase 10 (Homo sapiens)', 'group B'),
  ('O=C1Nc2cc(Br)ccc2/C1=C1/Nc2ccccc2/C1=N\O', 'Mitogen-activated protein kinase 10 (Homo sapiens)', 'group A'),
  ('CCC(=O)Nc1ccc2ncnc(Nc3cccc(Br)c3)c2c1', 'Mitogen-activated protein kinase 10 (Homo sapiens)', 'group B'),
  ('COc1cc2ncnc(N3CCN(C(=O)Nc4ccc(Oc5ccccc5)cc4)CC3)c2cc1OC', 'Mitogen-activated protein kinase 10 (Homo sapiens)', 'group B'),
  ('Nc1n[nH]c2nnc(-c3c(-c4ccccc4)nn4ccccc34)cc12', 'Mitogen-activated protein kinase 10 (Homo sapiens)', 'group A'),
  ('CNc1cc2c(Nc3cccc(Br)c3)ncnc2cn1', 'Mitogen-activated protein kinase 10 (Homo sapiens)', 'group C'),
  ('Cc1cc(Nc2nc(-c3ccccc3)nc3ccccc23)n[nH]1', 'Mitogen-activated protein kinase 10 (Homo sapiens)', 'group A'),
  ('Ic1cccc(CSc2nnc(-c3ccncc3)o2)c1', 'Mitogen-activated protein kinase 10 (Homo sapiens)', 'group B'),
  ('NC(=O)c1ccc2[nH]c(-c3ccc(Oc4ccc(Cl)cc4)cc3)nc2c1', 'Mitogen-activated protein kinase 10 (Homo sapiens)', 'group C');

Hello, the source for this data is ChEMBL document CHEMBL2218924, in case you need it.
